Values from PubChem BioAssay AID1259407

System: CCRIS mutagenicity, Ames/micronucleus/aberration tests
Assay: CCRIS mutagenicity studies
Details: Test System: AMES SALMONELLA TYPHIMURIUM; Strain/Indicator: TA100; Metabolic Activation: HAMSTER, LIVER, S-9, AROCLOR 1254 (10%); Method: PREINCUBATION
Active and inactive are the calls of the source. The rule behind the calls is not given here.
Mark one answer only. Choices: true (1) for active, false (0) for inactive

Reference set (5 entries):
Molecule	Assigned Class
Cc1cc(N=Nc2c(O)ccc3ccccc23)c(S(=O)(=O)O)cc1Cl	false (0)
OCC(CO)(CBr)CBr	false (0)
CCN	false (0)
O=[N+]([O-])c1cccc(O)c1	false (0)
Nc1ccc(Sc2ccc(N)cc2)cc1	true (1)

Request: Could you check what this test reported for `Oc1cccc(Nc2ccccc2)c1` ?
Response: false (0)

Request: Could you check what this test reported for `COC(=O)c1ccccc1C(=O)OC` ?
Response: false (0)

Request: Could you check what this test reported for `C1=C\CC/C=C\CC/1.C1=C\CC/C=C\CC/1.[Ni]` ?
Response: false (0)

---

System: CCRIS mutagenicity, Ames/micronucleus/aberration tests
Assay: CCRIS mutagenicity studies
Conditions: Test System: AMES SALMONELLA TYPHIMURIUM; Strain/Indicator: TA102; Metabolic Activation: RAT, LIVER, S-9, AROCLOR 1254; Method: STANDARD PLATE
Active and inactive are the calls of the source. No rule for the calls is given here.
Mark one answer only. Choices: active, inactive

Request: Could you check what this test reported for O=C1C=C2C(=CCOC2O)O1 (stereo not given) ?
Response: inactive

Request: Could you check what this test reported for `CCCCN(N)CCCC` ?
Response: inactive

Request: Could you check what this test reported for `Nc1ccccc1` ?
Response: inactive

Request: Could you check what this test reported for `Cc1ccccn1` ?
Response: inactive

Request: Could you check what this test reported for `NN(Cc1ccccc1)Cc1ccccc1` ?
Response: inactive

Request: Could you check what this test reported for `COC(=O)Nc1nc2ccc(Sc3ccccc3)cc2[nH]1` ?
Response: inactive

Request: Could you check what this test reported for `[Cl][Cr]([Cl])[Cl]` ?
Response: active

Request: Could you check what this test reported for CCC(CCC(C)O)COC(=O)CCCCC(=O)O (stereo not given) ?
Response: inactive

---

System: CCRIS mutagenicity, Ames/micronucleus/aberration tests
Assay: CCRIS mutagenicity studies
Settings: Test System: AMES SALMONELLA TYPHIMURIUM; Strain/Indicator: TA98; Metabolic Activation: NONE; Method: STANDARD PLATE
Activity calls are given as the source filed them. How the calls were made is not given here.
Mark one answer only. Choices: True for active, False for inactive

>>> print(df.to_string())
                                compound  assigned_class
0        N#Cc1cc(I)c(O)c([N+](=O)[O-])c1           False
1  O=C(/C=C/c1ccc(-c2ccccc2)cc1)c1ccccc1           False
2                    NCCc1c[nH]c2ccccc12           False
3                            ClC=C(Cl)Cl           False
4                          CC1=CCC(=O)O1           False

Request: Could you check what this test reported for `ClCCNCCCNc1c2ccccc2nc2c1ccc1cccnc12` ?
Response: True

Request: Could you check what this test reported for `Cc1ccccc1-c1ccc(N)cc1` ?
Response: False

Request: Could you check what this test reported for `CC(C)[C@]12CC(=O)[C@H](C)[C@H]1C2` ?
Response: False

Request: Could you check what this test reported for CCOP(=O)(Oc1ccc([N+](=O)[O-])cc1)c1ccccc1 (centres undefined) ?
Response: True

Request: Could you check what this test reported for `CCNc1nc(NC(C)C)[nH]c(=O)n1` ?
Response: False

Request: Could you check what this test reported for CCC(CCC(C)O)COC(=O)CCCCC(=O)O (centres undefined) ?
Response: False

Request: Could you check what this test reported for `ClCc1ccc2ccc3cc4ccccc4c4ccc1c2c34` ?
Response: False

Request: Could you check what this test reported for `ClC(Cl)=C(Cl)Cl` ?
Response: False

Request: Could you check what this test reported for `COC(=O)c1cc2c(c3c1ccc1c(OC)cccc13)OCO2` ?
Response: True
